// values below are reported pIC50
- System: A549
- assayMethodText: Cytotoxicity against human A549 cells after 72 hrs by SRB assay
- Type: functional, cell-based
- appliedConditions: A549, 72 h
Answer as the number alone; pIC50 is minus log10 of concentration in mol/L.

{"molecule": "CC[C@@]1(O)C(=O)OCc2c1cc1n(c2=O)Cc2cc3c(CN(C)C)c(O)ccc3nc2-1 [TOPOTECAN]", "pIC50": 6.96}
{"molecule": "CC[C@@]1(O)C(=O)OCc2c1cc1n(c2=O)Cc2c-1nc1ccccc1c2CN1CCN(/C(Cc2ccc(OC)cc2)=N\\S(=O)(=O)c2ccc([N+](=O)[O-])cc2)CC1", "pIC50": 5.53}
{"molecule": "CC[C@@]1(O)C(=O)OCc2c1cc1n(c2=O)Cc2c-1nc1ccccc1c2CN1CCN(/C(Cc2ccc(OC)cc2)=N\\S(=O)(=O)CC)CC1", "pIC50": 6.15}
{"molecule": "CC[C@@]1(O)C(=O)OCc2c1cc1n(c2=O)Cc2c-1nc1ccccc1c2CN1CCN(/C(Cc2ccc(OC)cc2)=N\\S(=O)(=O)c2ccc(C)cc2)CC1", "pIC50": 6.13}
{"molecule": "CC[C@@]1(O)C(=O)OCc2c1cc1n(c2=O)Cc2c-1nc1ccccc1c2CN1CCN(/C(Cc2ccc(F)cc2)=N\\S(=O)(=O)CC)CC1", "pIC50": 6.30}

Entry under test: CC[C@@]1(O)C(=O)OCc2c1cc1n(c2=O)Cc2c-1nc1ccccc1c2CN1CCN(/C(Cc2ccc(F)cc2)=N\S(=O)(=O)c2ccc3ccccc3c2)CC1 . Its pIC50 was 6.22

Briefly, pIC50 measured for CC[C@@]1(O)C(=O)OCc2c1cc1n(c2=O)Cc2c-1nc1ccccc1c2CN1CCN(/C(Cc2ccccc2)=N\S(=O)(=O)c2cccs2)CC1 : 6.19

molecule CC[C@@]1(O)C(=O)OCc2c1cc1n(c2=O)Cc2c-1nc1ccccc1c2CN1CCN(/C(Cc2ccc(F)cc2)=N\S(=O)(=O)c2ccc(F)cc2)CC1 , pIC50 observed: 5.37

Kindly note the recorded pIC50 for CC[C@@]1(O)C(=O)OCc2c1cc1n(c2=O)Cc2c-1nc1ccccc1c2CN1CCN(/C(Cc2ccc(F)cc2)=N\S(=O)(=O)c2ccc(C)cc2)CC1 , which is 5.75

The reported value for CC[C@@]1(O)C(=O)OCc2c1cc1n(c2=O)Cc2c-1nc1ccccc1c2CN1CCN(/C(Cc2ccccc2)=N\S(=O)(=O)c2ccccc2)CC1 in terms of pIC50 is 6.19

CC[C@@]1(O)C(=O)OCc2c1cc1n(c2=O)Cc2c-1nc1ccccc1c2CN1CCN(/C(Cc2ccccc2)=N\S(=O)(=O)c2ccc3ccccc3c2)CC1 has a reported pIC50 of 5.50

Sure, the documented pIC50 for CC[C@@]1(O)C(=O)OCc2c1cc1n(c2=O)Cc2c-1nc1ccccc1c2CN1CCN(/C(Cc2ccc(OC)cc2)=N\S(=O)(=O)c2ccc3ccccc3c2)CC1 is 6.13

pIC50 measured on CC[C@@]1(O)C(=O)OCc2c1cc1n(c2=O)Cc2c-1nc1ccccc1c2CN1CCN(/C(Cc2ccc(F)cc2)=N\S(=O)(=O)c2ccc([N+](=O)[O-])cc2)CC1 = 6.20

// pIC50 value for CC[C@@]1(O)C(=O)OCc2c1cc1n(c2=O)Cc2c-1nc1ccccc1c2CN1CCN(/C(Cc2ccccc2)=N\S(=O)(=O)c2cccnc2)CC1 : 6.12

Short answer for CC[C@@]1(O)C(=O)OCc2c1cc1n(c2=O)Cc2c-1nc1ccccc1c2CN1CCN(/C(Cc2ccccc2)=N\S(=O)(=O)c2ccc(Cl)cc2)CC1 : pIC50 was 6.19

// field: pIC50; key: CC[C@@]1(O)C(=O)OCc2c1cc1n(c2=O)Cc2c-1nc1ccccc1c2CN1CCN(/C(Cc2ccc(OC)cc2)=N\S(=O)(=O)c2cccnc2)CC1 ; value = 6.10

* * *

- Test system: A549
- assayMethodText: Cytotoxicity against human A549 cells after 72 hrs by SRB assay
- Type: functional, cell-based
- appliedConditions: A549, 72 h
measuredQuantity: IC50 (µM)
Could you give me the number in µM? Just the number is fine.

{"compound": "CCc1c2c(nc3ccc(OC(=O)N4CCC(N5CCCCC5)CC4)cc13)-c1cc3c(c(=O)n1C2)COC(=O)[C@]3(O)CC [IRINOTECAN]", "targetSystem": "A549", "measuredQuantity": "IC50", "measuredValue": 8.31}
{"compound": "CC[C@@]1(O)C(=O)OCc2c1cc1n(c2=O)Cc2c-1nc1ccccc1c2CN1CCN(/C(Cc2ccccc2)=N\\S(C)(=O)=O)CC1", "targetSystem": "A549", "measuredQuantity": "IC50", "measuredValue": 0.65}
{"compound": "CC[C@@]1(O)C(=O)OCc2c1cc1n(c2=O)Cc2c-1nc1ccccc1c2CN1CCN(/C(Cc2ccccc2)=N\\S(=O)(=O)CC)CC1", "targetSystem": "A549", "measuredQuantity": "IC50", "measuredValue": 0.73}

Turning now to a further record.
Summary line: CC[C@@]1(O)C(=O)OCc2c1cc1n(c2=O)Cc2c-1nc1ccccc1c2CN1CCN(/C(Cc2ccc(F)cc2)=N\S(=O)(=O)c2cccnc2)CC1 , A549, reported IC50 = 2.59
